- measurement_target: NACHT, LRR and PYD domains-containing protein 3 (Mus musculus) (UniProt Q8R4B8)
- Sequence (Q8R4B8 whole entry, the tested form may be a part): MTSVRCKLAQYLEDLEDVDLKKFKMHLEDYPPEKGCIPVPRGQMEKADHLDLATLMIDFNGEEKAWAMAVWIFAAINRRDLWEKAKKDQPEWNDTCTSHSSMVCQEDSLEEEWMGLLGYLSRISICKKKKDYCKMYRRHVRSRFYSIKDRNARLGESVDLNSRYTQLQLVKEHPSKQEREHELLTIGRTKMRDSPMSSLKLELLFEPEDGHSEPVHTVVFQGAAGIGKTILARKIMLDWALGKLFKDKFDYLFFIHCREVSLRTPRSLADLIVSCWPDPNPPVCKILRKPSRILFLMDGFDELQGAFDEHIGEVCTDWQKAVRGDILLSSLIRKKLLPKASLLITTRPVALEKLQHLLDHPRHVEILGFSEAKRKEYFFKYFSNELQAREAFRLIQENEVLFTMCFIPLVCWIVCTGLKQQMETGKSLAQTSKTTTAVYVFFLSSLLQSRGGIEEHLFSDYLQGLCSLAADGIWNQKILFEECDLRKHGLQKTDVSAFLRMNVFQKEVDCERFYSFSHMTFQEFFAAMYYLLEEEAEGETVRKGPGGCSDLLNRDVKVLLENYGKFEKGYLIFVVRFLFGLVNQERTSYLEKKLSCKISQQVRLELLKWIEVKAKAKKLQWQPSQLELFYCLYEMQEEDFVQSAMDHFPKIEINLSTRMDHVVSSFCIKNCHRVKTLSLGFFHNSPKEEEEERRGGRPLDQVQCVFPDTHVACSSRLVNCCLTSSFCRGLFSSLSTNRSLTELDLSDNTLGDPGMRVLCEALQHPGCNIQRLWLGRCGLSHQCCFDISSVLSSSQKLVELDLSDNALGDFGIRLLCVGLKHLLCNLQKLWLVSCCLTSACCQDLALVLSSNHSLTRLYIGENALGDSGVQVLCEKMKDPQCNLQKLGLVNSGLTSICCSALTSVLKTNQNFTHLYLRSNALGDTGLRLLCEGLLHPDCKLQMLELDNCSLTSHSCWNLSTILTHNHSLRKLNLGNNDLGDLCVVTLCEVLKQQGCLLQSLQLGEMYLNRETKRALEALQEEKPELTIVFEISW
- experiment_notes: Inhibition of NLRP3 inflammasome activation in LPS/ATP-induced C57BL/6 mouse BMDMs assessed as reduction in IL-1beta secretion at 500 nM preincubated with LPS for 4 hrs followed by compound addition for 30 mins and further stimulated with ATP for 30 mins by ELISA relative to control
- Type: cell-based
- details: BMDM, time 1.0 hrs
quantity_name: inhibition (%)
Numeric answer only, unit % assumed.

Answered cases to consult:
C=C1C(=O)[C@]23[C@H](O)[C@H]1CC[C@H]2[C@]12C=CCC(C)(C)[C@H]1[C@H](O)[C@@]3(OCCC(=O)NCCC)OC2: 60
C=C1C(=O)[C@]23[C@H](O)[C@H]1CC[C@H]2[C@]12C=CCC(C)(C)[C@H]1[C@H](O)[C@@]3(OCc1nccs1)OC2: 63.2
C=C1C(=O)[C@]23[C@H](O)[C@H]1CC[C@H]2[C@]12C=CCC(C)(C)[C@H]1[C@H](O)C3(OCc1cccnc1)OC2 (single isomer, unassigned): 68.4
C=C1C(=O)[C@]23[C@H](O)[C@H]1CC[C@H]2[C@]12C=CCC(C)(C)[C@H]1[C@H](O)[C@@]3(OCCC(=O)O)OC2: 95.3
C=C1C(=O)[C@]23[C@H](O)[C@H]1CC[C@H]2[C@]12C=CCC(C)(C)[C@H]1[C@H](O)[C@@]3(OCCC(=O)NC1CCCCC1)OC2: 74.1

From here, focus on the item given below.
inhibition for `C=C1C(=O)[C@]23[C@H](O)[C@H]1CC[C@H]2[C@]12C=CCC(C)(C)[C@H]1[C@H](O)[C@@]3(OCCC(=O)NC(C)C)OC2` is 84.8

---

- measurement_target: NACHT, LRR and PYD domains-containing protein 3 (Mus musculus)
- experiment_notes: Inhibition of NLRP3 inflammasome activation in LPS/ATP-induced C57BL/6 mouse BMDMs assessed as reduction in IL-1beta secretion at 200 nM preincubated with LPS for 4 hrs followed by compound addition for 30 mins and further stimulated with ATP for 30 mins by ELISA relative to control
- Format: cell-based
- details: BMDM, time 1.0 hrs
# label = criterion met if inhibition >= 60% else criterion not met

C=C1C(=O)[C@]23[C@H](O)[C@H]1CC[C@H]2[C@]12C=CCC(C)(C)[C@H]1[C@H](O)[C@@]3(OCCC(=O)NC)OC2: criterion not met
C=C1C(=O)[C@]23[C@H](O)[C@H]1CC[C@H]2[C@]12C=CCC(C)(C)[C@H]1[C@H](O)[C@@]3(OCCCCCc1ccccc1)OC2: criterion not met
C=C1C(=O)[C@]23[C@H](O)[C@H]1CC[C@H]2[C@]12C=CCC(C)(C)[C@H]1[C@H](O)[C@@]3(OCCC(=O)N(C)C)OC2: criterion met
C=C1C(=O)[C@]23[C@H](O)[C@H]1CC[C@H]2[C@]12C=CCC(C)(C)[C@H]1[C@H](O)[C@@]3(OCCC(=O)NCCC)OC2: criterion not met
C=C1C(=O)[C@]23[C@H](O)[C@H]1CC[C@H]2[C@]12C=CCC(C)(C)[C@H]1[C@H](O)[C@@]3(OCCC(=O)N1CCCC1)OC2: criterion not met

Q: Dear colleague, could you confirm whether `C=C1C(=O)[C@]23[C@H](O)[C@H]1CC[C@H]2[C@]12C=CCC(C)(C)[C@H]1[C@H](O)[C@@]3(OCc1nccs1)OC2` has inhibition at or above 60%?
Result: criterion not met

Q: State whether the measured inhibition reaches 60%, counting equality as reaching it, for `C=C1C(=O)[C@]23[C@H](O)[C@H]1CC[C@H]2[C@]12C=CCC(C)(C)[C@H]1[C@H](O)[C@@]3(OCc1ccc(Cl)cc1)OC2`
Result: criterion met

Q: Entry `C=C1C(=O)[C@]23[C@H](OCc4ccc5ccccc5c4)[C@H]1CC[C@H]2[C@]12C=CCC(C)(C)[C@H]1[C@H](O)[C@@]3(O)OC2` : is its inhibition no less than 60%?
Result: criterion not met

Q: State whether the measured inhibition reaches 60%, counting equality as reaching it, for C=C1C(=O)[C@]23[C@H](O)[C@H]1CC[C@H]2[C@]12C=CCC(C)(C)[C@H]1[C@H](O)C3(OCc1cccnc1)OC2 (single isomer, unassigned)
Result: criterion not met

Q: Quick check: does `C=C1C(=O)[C@]23[C@H](O)[C@H]1CC[C@H]2[C@]12C=CCC(C)(C)[C@H]1[C@H](O)[C@@]3(OCCC(=O)NC1CCOCC1)OC2` have inhibition greater than or equal to 60%?
Result: criterion not met

Q: Could you tell me if the measured inhibition of `C=C1C(=O)[C@]23[C@H](O)[C@H]1CC[C@H]2[C@]12C=CCC(C)(C)[C@H]1[C@H](O)[C@@]3(OCCC(=O)NC1CC1)OC2` reaches 60% or more?
Result: criterion not met

Q: Given the entry `C=C1C(=O)[C@]23[C@H](O)[C@H]1CC[C@H]2[C@]12C=CCC(C)(C)[C@H]1[C@H](O)[C@@]3(OCCC(=O)O)OC2` , answer whether its inhibition meets or surpasses 60%.
Result: criterion met

Q: Decide: inhibition of `C=C1C(=O)[C@]23[C@H](O)[C@H]1CC[C@H]2[C@]12C=CCC(C)(C)[C@H]1[C@H](O)[C@@]3(OCc1nc(-c3ccccc3)cs1)OC2` >= 60%?
Result: criterion met

Q: Identify whether the reported inhibition of the following compound is 60% or greater: `C=C1C(=O)[C@]23[C@H](O)[C@H]1CC[C@H]2[C@]12C=CCC(C)(C)[C@H]1[C@H](O)[C@@]3(OCc1cnco1)OC2`
Result: criterion met

---

inhibition overview
- measurement_target: NACHT, LRR and PYD domains-containing protein 3 (Mus musculus)
- experiment_notes: Inhibition of NLRP3 inflammasome activation in LPS/ATP-induced C57BL/6 mouse BMDMs assessed as reduction in IL-1beta secretion at 500 nM preincubated with LPS for 4 hrs followed by compound addition for 30 mins and further stimulated with ATP for 30 mins by ELISA relative to control
- Type: cell-based
- details: BMDM, time 1.0 hrs
Note: unit % is implicit; provide only the numeric part.

C=C1C(=O)[C@]23[C@H](O)[C@H]1CC[C@H]2[C@]12C=CCC(C)(C)[C@H]1[C@H](O)[C@@]3(OCCC(=O)NC1CCCC1)OC2: 84.7

// below: inhibition requested for another compound
# inhibition of `C=C1C(=O)[C@]23[C@H](O)[C@H]1CC[C@H]2[C@]12C=CCC(C)(C)[C@H]1[C@H](O)[C@@]3(OCCC(=O)N1CCCC1)OC2` = 79.1

---

- experiment_notes: Selectivity index, ratio of CC50 for cytotoxicity against C57BL/6 mouse BMDMs to IC50 for inhibition of NLRP3 inflammasome activation in C57BL/6 mouse BMDMs
- Type: toxicity
- details: bone marrow-derived macrophages (BMDMs), read-out: Ratio CC50/IC50
quantity_name: selectivity ratio

Looking up `C=C1C(=O)[C@]23[C@H](O)[C@H]1CC[C@H]2[C@]12C=CCC(C)(C)[C@H]1[C@H](O)[C@@]3(OCCC(=O)N1CCOCC1)OC2` , I see its selectivity ratio listed as 30.2

---

- measurement_target: NACHT, LRR and PYD domains-containing protein 3 (Mus musculus, UniProt Q8R4B8)
- Sequence (Q8R4B8 whole entry, the tested form may be a part): as above
- experiment_notes: Inhibition of NLRP3 inflammasome activation in mouse J774.A1 cells
- Format: cell-based
quantity_name: IC50 (nM)
Reply with just the number (in nM).

Record for `CS(=O)(=O)/C=C/C#N` under target or system NACHT, LRR and PYD domains-containing protein 3 (Mus musculus, UniProt Q8R4B8): IC50 reported as 100

---

- measurement_target: NACHT, LRR and PYD domains-containing protein 3 (Mus musculus) (UniProt Q8R4B8)
- experiment_notes: Inhibition of NLRP3 inflammasome activation in LPS/ATP-induced C57BL/6 mouse BMDMs assessed as reduction in IL-1beta secretion at 200 nM preincubated with LPS for 4 hrs followed by compound addition for 30 mins and further stimulated with ATP for 30 mins by ELISA relative to control
- Format: cell-based
- details: BMDM, time 1.0 hrs
Label T when inhibition >= 60%; otherwise F.

C=C1C(=O)[C@]23[C@H](O)[C@H]1CC[C@H]2[C@]12C=CCC(C)(C)[C@H]1[C@H](O)[C@@]3(OCCC(=O)NC(C)C)OC2: T
C=C1C(=O)[C@]23[C@H](O)[C@H]1CC[C@H]2[C@]12C=CCC(C)(C)[C@H]1[C@H](O)[C@@]3(OCc1ccncc1)OC2: F
C=C1C(=O)[C@]23[C@H](O)[C@H]1CC[C@H]2[C@]12C=CCC(C)(C)[C@H]1[C@H](O)[C@@]3(OCc1cocn1)OC2: T
C=C1C(=O)[C@]23[C@H](O)[C@H]1CC[C@H]2[C@]12C=CCC(C)(C)[C@H]1[C@H](O)[C@@]3(OCCC(=O)NCCOC)OC2: F

# next compound below
Q: I'd appreciate it if you could say whether `C=C1C(=O)[C@]23[C@H](O)[C@H]1CC[C@H]2[C@]12C=CCC(C)(C)[C@H]1[C@H](O)[C@@]3(OCCC(=O)N1CCCCC1)OC2` has inhibition at least equal to 60%.
Result: F
